- Test system: PDC 899932-113-R3-J6 complex spheroid viability;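 also: spheroids exposed to agents for seven days before readout; 100% = DMSO vehicle control wells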
- Assay name: Anticancer human tumor 899932-113-R3-J6-PDC patient-derived melanoma cell line growth inhibition [RAS]; active = viability on the fitted dose curve at most 10% of control; inactive = the rest
- Condition parameters: second compound 0.03 µM; first compound 0.03 µM
Hi there, use one of these labels in your reply, thanks! true (1) for active, false (0) for inactive

Some solved entries appear below for comparison.
[
  {
    "Compound": "CCc1c2c(nc3ccc(O)cc13)-c1cc3c(c(=O)n1C2)COC(=O)[C@]3(O)CC + CCn1c(-c2cccnc2C(C)OC)c2c3cc(ccc31)N1CCOC(CC(NC(=O)C(C(C)C)N(C)C(=O)C3(F)CCN(C(=O)C#CC(C)(C)N(C)C)CC3)C(=O)N3CCCC(N3)C(=O)OCC(C)(C)C2)C1",
    "Target under test": "PDC 899932-113-R3-J6 complex spheroid viability",
    "Group label": "false (0)"
  },
  {
    "Compound": "CC1(C)CCC(Nc2ncc(C(F)(F)F)c(-c3c[nH]c4c(P(C)(C)=O)c(C#N)ccc34)n2)CN1 (centres undefined) + CCn1c(-c2cccnc2C(C)OC)c2c3cc(ccc31)N1CCOC(CC(NC(=O)C(C(C)C)N(C)C(=O)C3(F)CCN(C(=O)C#CC(C)(C)N(C)C)CC3)C(=O)N3CCCC(N3)C(=O)OCC(C)(C)C2)C1",
    "Target under test": "PDC 899932-113-R3-J6 complex spheroid viability",
    "Group label": "false (0)"
  },
  {
    "Compound": "CCc1c2c(nc3ccc(O)cc13)-c1cc3c(c(=O)n1C2)COC(=O)[C@]3(O)CC + CCn1c(-c2cc(N3CCN(C)CC3)cnc2C(C)OC)c2c3cc(ccc31)-c1csc(n1)CC(NC(=O)C1CC1C)C(=O)N1CCCC(N1)C(=O)OCC(C)(C)C2",
    "Target under test": "PDC 899932-113-R3-J6 complex spheroid viability",
    "Group label": "true (1)"
  }
]

Attention now turns to another entry.
Each compound tested received a call. Report the one for CC1(C)CCC(Nc2ncc(C(F)(F)F)c(-c3c[nH]c4c(P(C)(C)=O)c(C#N)ccc34)n2)CN1 (centres undefined) + CCn1c(-c2cc(N3CCN(C)CC3)cnc2C(C)OC)c2c3cc(ccc31)-c1csc(n1)CC(NC(=O)C1CC1C)C(=O)N1CCCC(N1)C(=O)OCC(C)(C)C2 . true (1)
